- System: U-118 Glioblastoma cell line
- method.description: DIMSCAN cytotoxicity, fenretinide + L-threo-sphinganines 3:1 (Example B5)
- Type: cell-based, human
- Parameters: key: CI<0.9 synergy, 0.9-1.1 additive, >1.1 antagonistic
- particulars: U-118 MG; 4-HPR 6 μM + L-threo-sphinganine 2 μM; 96 h
readout: CI (Combination Index)
Form field (numeric): enter value without unit.

INSERT INTO assay_data (compound, target_under_test, numeric_readout) VALUES
  ('CCCCCCCCCCCCCCCCC[C@H](O)[C@@H](N)CO', 'U-118 Glioblastoma cell line', 0.3),
  ('CCCCCCCCCCCCCCC[C@H](O)[C@@H](N)CO [C18, (2S,3S)-2-amino-1,3-octadecanediol, reference compound]', 'U-118 Glioblastoma cell line', 0.5),
  ('CCCCCCCCCCCCCC[C@H](O)[C@@H](N)CO', 'U-118 Glioblastoma cell line', 1.5),
  ('CCCCCCCCCCCCCCCC[C@H](O)[C@@H](N)CO', 'U-118 Glioblastoma cell line', 0.4),
  ('CCCCCCCCCCCC[C@H](O)[C@@H](N)CO', 'U-118 Glioblastoma cell line', 0.4);

CI (Combination Index) lookup needed for CCCCCCCCC[C@H](O)[C@@H](N)CO , thanks.
0.3

CI (Combination Index) lookup needed for CCCCCCCCCCCCCCCCCC[C@H](O)[C@@H](N)CO , thanks.
0.6

CI (Combination Index) lookup needed for CCCCCCCCCCC[C@H](O)[C@@H](N)CO , thanks.
1.2

FYI, the data here is from patent US20110152267A1.
